# measured.on: UniProtKB P51531
# Sequence (P51531 whole entry): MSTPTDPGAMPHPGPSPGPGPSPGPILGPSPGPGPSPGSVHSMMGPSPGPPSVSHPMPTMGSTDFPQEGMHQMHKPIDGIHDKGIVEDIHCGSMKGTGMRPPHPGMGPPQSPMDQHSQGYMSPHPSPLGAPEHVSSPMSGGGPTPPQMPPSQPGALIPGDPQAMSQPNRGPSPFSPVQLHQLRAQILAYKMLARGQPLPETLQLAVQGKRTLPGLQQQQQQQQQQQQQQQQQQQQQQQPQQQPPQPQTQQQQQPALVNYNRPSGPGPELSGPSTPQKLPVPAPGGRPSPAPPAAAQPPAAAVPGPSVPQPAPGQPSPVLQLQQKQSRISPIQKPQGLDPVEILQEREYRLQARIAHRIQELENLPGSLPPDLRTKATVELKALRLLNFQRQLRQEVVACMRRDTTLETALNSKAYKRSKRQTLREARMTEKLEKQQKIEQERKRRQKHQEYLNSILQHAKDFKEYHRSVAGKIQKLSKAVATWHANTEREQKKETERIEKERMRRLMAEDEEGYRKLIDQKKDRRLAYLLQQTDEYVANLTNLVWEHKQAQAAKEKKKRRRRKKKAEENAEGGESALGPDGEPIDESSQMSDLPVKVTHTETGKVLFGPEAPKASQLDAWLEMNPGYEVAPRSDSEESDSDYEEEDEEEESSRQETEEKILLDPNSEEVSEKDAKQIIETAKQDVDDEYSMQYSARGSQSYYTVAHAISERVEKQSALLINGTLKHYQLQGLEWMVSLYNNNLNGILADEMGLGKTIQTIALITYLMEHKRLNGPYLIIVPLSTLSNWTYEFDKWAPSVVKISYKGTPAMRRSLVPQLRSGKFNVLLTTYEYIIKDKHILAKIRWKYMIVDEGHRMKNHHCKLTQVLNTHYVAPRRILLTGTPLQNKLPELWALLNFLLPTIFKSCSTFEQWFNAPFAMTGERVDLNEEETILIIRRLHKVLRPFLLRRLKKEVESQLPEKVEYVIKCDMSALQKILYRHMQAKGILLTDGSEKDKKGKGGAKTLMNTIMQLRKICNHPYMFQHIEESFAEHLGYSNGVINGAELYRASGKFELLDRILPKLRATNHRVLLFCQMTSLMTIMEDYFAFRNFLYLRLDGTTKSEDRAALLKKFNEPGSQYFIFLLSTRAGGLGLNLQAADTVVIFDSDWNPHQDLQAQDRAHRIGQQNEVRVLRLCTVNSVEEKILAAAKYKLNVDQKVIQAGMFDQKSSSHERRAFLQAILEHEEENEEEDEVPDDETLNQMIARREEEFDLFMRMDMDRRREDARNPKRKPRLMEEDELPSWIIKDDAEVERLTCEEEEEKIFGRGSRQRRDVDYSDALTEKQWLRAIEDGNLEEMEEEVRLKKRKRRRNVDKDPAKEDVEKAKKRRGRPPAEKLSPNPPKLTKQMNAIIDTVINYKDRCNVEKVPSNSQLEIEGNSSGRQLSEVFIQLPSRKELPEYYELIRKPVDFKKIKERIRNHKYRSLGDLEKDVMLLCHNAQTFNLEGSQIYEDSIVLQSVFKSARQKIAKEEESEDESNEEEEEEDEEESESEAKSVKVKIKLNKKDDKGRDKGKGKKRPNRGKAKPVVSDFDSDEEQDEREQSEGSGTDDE
# assay.explanation: SMARCA2 Western blot degradation in MV4-11 cells
# Type: cell-based
# Set-up: SMARCA2/SMARCA4 protein degradation selectivity in MV4-11 cells; endogenous in cells; host or cells: MV4-11
# recorded.conditions: MV4-11 cells, 24 h; read-out: SMARCA2 MSD MV411 degradation 24 h: Mean external-Abs DC50
property.name: DC50

-- ask Entry C#Cc1ccc(CNC(=O)[C@@H]2C[C@@H](O)CN2C(=O)[C@@H](NC(=O)N2CC3(CC(N4CCC(c5cnc(N6CCc7[nH]c8nnc(-c9ccccc9O)cc8c7[C@H]6C)nc5)CC4)C3)C2)C(C)(C)C)cc1OC [I-319] has what DC50?
-- reply 1 to 10 nM

-- ask Entry C#Cc1cnc(CNC(=O)[C@@H]2C[C@@H](O)CN2C(=O)C(c2cc(OCCN3CCC(N4CCC(N5CCC(CN6CCN7c8cc(-c9ccccc9O)nnc8NC[C@H]7C6)CC5)CC4)CC3)no2)C(C)C)c(OC)c1 (stereo partly shown) [I-303] has what DC50?
-- reply 10 to 100 nM

-- ask Entry C#Cc1c(F)cc(CNC(=O)[C@@H]2C[C@@H](O)CN2C(=O)[C@@H](NC(=O)N2CC3(CC(N4CCC(c5cnc(N6CCc7[nH]c8nnc(-c9ccccc9O)cc8c7[C@H]6C)nc5)CC4)C3)C2)C(C)(C)C)cc1F [I-402] has what DC50?
-- reply 1 to 10 nM

-- ask Entry C#Cc1ccc(CNC(=O)[C@@H]2C[C@@H](O)CN2C(=O)[C@@H](NC(=O)[C@H]2CCC3(CC2)C[C@H](N2CCC(c4cnc(N5CCN6c7cc(-c8cccc(Cl)c8O)nnc7NC[C@@H]6C5)nc4)CC2)C3)C(C)(C)C)cc1 (single isomer, unassigned) [I-153] has what DC50?
-- reply 1 to 10 nM
